Target: H-2 K^d (Mus musculus)
Test: Binding of peptides to purified H-2 K^d (inhibition of radiolabeled standard peptide)
pIC50: −log10 of the molar value. Ends that are not written are not given here.
Reported pIC50 values follow for various sequences
Value kind: pIC50

In [3]: df
Out[3]:
                                chain  value_kind  value_relation_sign  result
 0              NYLLSLVAVML [Serinc1]       pIC50                    =    4.68
 1   LYHTRPTAL [Kdm4b, L(y/D)HTRPTAL]       pIC50                    <    4.15
 2   GYSVLHLAI [Nfkb1, G(y/D)SVLHLAI]       pIC50                    =    5.79
 3  SYMLQALCI [Tnpo3, (sy/LD)MLQALCI]       pIC50                    =    6.84
 4                PYKRLKAEPA [Prrc2a]       pIC50                    =    6.58
 5              AYILAALTKL [Trim26.1]       pIC50                    =    8.96
 6   HYLSSILRL [Pacs2, HYLS(s/A)ILRL]       pIC50                    =    5.90
 7                VYLTCRLEKPA [Gapdh]       pIC50                    <    4.15
 8      HYLQGSNA [Fiz1, H(y/D)LQGSNA]       pIC50                    <    4.15
 9  LYVSKLNGP [Galnt1, L(y/D)VSKLNGP]       pIC50                    <    4.15
10   AYAKQFAA [Ube4a.2, A(y/D)AKQFAA]       pIC50                    <    4.15
11                 GFHGCIHEVL [Slit3]       pIC50                    <    4.15
12             AYILAALTKLQ [Trim26.2]       pIC50                    <    4.15
13               PALKSEEKTL [Stau1.3]       pIC50                    <    4.15
14                  SYCEPALNQA [Ncdn]       pIC50                    <    4.15

---

Biological target: H-2 K^d (Mus musculus, UniProt P01902)
Sequence (P01902 22-368): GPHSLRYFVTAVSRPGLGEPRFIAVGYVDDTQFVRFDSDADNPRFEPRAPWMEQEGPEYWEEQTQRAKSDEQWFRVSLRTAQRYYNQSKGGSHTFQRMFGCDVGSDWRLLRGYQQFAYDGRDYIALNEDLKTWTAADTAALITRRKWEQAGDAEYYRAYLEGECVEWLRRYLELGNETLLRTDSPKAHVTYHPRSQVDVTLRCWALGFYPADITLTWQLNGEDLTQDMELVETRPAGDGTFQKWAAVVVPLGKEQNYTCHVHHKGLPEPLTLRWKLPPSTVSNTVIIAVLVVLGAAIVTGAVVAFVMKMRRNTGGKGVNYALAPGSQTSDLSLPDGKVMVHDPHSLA
Sequence (P61769 21-119 partner): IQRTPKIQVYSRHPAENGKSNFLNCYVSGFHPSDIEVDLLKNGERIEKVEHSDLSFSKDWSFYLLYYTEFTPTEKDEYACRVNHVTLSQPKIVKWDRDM
Assay: Binding of peptides to purified H-2 K^d (inhibition of radiolabeled standard peptide)
Conditions: mutated peptide; Table 5; read-out: Measured IC50 for K^d Mut/WT: Mut
pIC50: −log10 of the molar value. Ends that are not written are not given here.
Value kind: pIC50

                                  substance                       target_under_test  value_kind  result
0     AYILAALTKLQ [Zfp236.2, E(y/D)LDLQTQG]  H-2 K^d (Mus musculus, UniProt P01902)       pIC50    5.00
1         VFPGLMEL [Atxn10.2, VFPGLME(l/R)]  H-2 K^d (Mus musculus, UniProt P01902)       pIC50  < 4.15
2  ELQGLLEDE(l/R) (ELQGLLEDEL; not fully specified; printed as ELQGLLEDE(l/R); listed as Mus musculus) [Ccdc136]  H-2 K^d (Mus musculus, UniProt P01902)       pIC50  < 4.15
3  D(y/D)VPMEQPRP (DYVPMEQPRP; not fully specified; listed as Mus musculus) [Alkbh6.3]  H-2 K^d (Mus musculus, UniProt P01902)       pIC50  < 4.15
4           PYLTQYAI [Dhx8.2, P(y/D)LTQYAI]  H-2 K^d (Mus musculus, UniProt P01902)       pIC50  < 4.15
5  QVFPGLME(l/R) (QVFPGLMEL; not fully specified; printed as QVFPGLME(l/R); listed as Mus musculus) [Atxn10.1]  H-2 K^d (Mus musculus, UniProt P01902)       pIC50  < 4.15
6       DYVPMEQPR [Alkbh6.2, D(y/D)VPMEQPR]  H-2 K^d (Mus musculus, UniProt P01902)       pIC50  < 4.15
7          AYRLEGDRS [Dcaf6, A(y/D)RLEGDRS]  H-2 K^d (Mus musculus, UniProt P01902)       pIC50  < 4.15
8                       KLQRQYRSPRL [Mast2]  H-2 K^d (Mus musculus, UniProt P01902)       pIC50    5.00
9  SWSSRRSLLG(l/R) (SWSSRRSLLGL; not fully specified; listed as Mus musculus) [9430016H08Rik]  H-2 K^d (Mus musculus, UniProt P01902)       pIC50  < 4.15

---

Measured pIC50, listed per entry.
Biological target: H-2 K^d (Mus musculus, UniProt P01902)
Test: Binding of peptides to purified H-2 K^d (inhibition of radiolabeled standard peptide)
Conditions: wild type counterpart peptide; Table 5; read-out: Measured IC50 for K^d Mut/WT: WT
pIC50: −log10 of the molar value. Ends that are not written are not given here.
Value kind: pIC50

>>> print(df.to_string())
                                   substance                       target_under_test  value_kind  value_relation_sign  result
 0                     TTTPGGRPPYL [Sipa113]  H-2 K^d (Mus musculus, UniProt P01902)       pIC50                    <    4.15
 1  P(y/D)LTQYAIIM (PYLTQYAIIM; not fully specified; listed as Mus musculus) [Dhx8.4]  H-2 K^d (Mus musculus, UniProt P01902)       pIC50                    =    5.20
 2                       ALKSEEKTL [Stau1.4]  H-2 K^d (Mus musculus, UniProt P01902)       pIC50                    <    4.15
 3        AYAKQFAAI [Ube4a.1, A(y/D)AKQFAAI]  H-2 K^d (Mus musculus, UniProt P01902)       pIC50                    <    4.15
 4  D(y/D)VPMEQPRPP (DYVPMEQPRPP; not fully specified; listed as Mus musculus) [Alkbh6.4]  H-2 K^d (Mus musculus, UniProt P01902)       pIC50                    =    5.53
 5                        LYYERIHKKML [Ugdh]  H-2 K^d (Mus musculus, UniProt P01902)       pIC50                    =    7.92
 6  QVFPGLME(l/R) (QVFPGLMEL; not fully specified; printed as QVFPGLME(l/R); listed as Mus musculus) [Atxn10.1]  H-2 K^d (Mus musculus, UniProt P01902)       pIC50                    =    5.15
 7         PYLTQYAII [Dhx8.3, P(y/D)LTQYAII]  H-2 K^d (Mus musculus, UniProt P01902)       pIC50                    =    5.85
 8          LKSEEKTL [Stau1.1, LKSEEKT(l/P)]  H-2 K^d (Mus musculus, UniProt P01902)       pIC50                    <    4.15
 9         DYVPMEQP [Alkbh6.1, D(y/D)VPMEQP]  H-2 K^d (Mus musculus, UniProt P01902)       pIC50                    <    4.15
10        LYEAGVTDE [Tpst2.2, L(y/D)EAGVTDE]  H-2 K^d (Mus musculus, UniProt P01902)       pIC50                    <    4.15
11  SWSSRRSLLG(l/R) (SWSSRRSLLGL; not fully specified; listed as Mus musculus) [9430016H08Rik]  H-2 K^d (Mus musculus, UniProt P01902)       pIC50                    <    4.15
12  P(y/D)LTQYAIIML (PYLTQYAIIML; not fully specified; listed as Mus musculus) [Dhx8.1]  H-2 K^d (Mus musculus, UniProt P01902)       pIC50                    =    5.78
13       DYVPMEQPR [Alkbh6.2, D(y/D)VPMEQPR]  H-2 K^d (Mus musculus, UniProt P01902)       pIC50                    =    4.29
14  ELQGLLEDE(l/R) (ELQGLLEDEL; not fully specified; printed as ELQGLLEDE(l/R); listed as Mus musculus) [Ccdc136]  H-2 K^d (Mus musculus, UniProt P01902)       pIC50                    =    5.34
15         EYLDLQTQ [Zfp236.1, E(y/D)LDLQTQ]  H-2 K^d (Mus musculus, UniProt P01902)       pIC50                    <    4.15
16            LYDVDAAF [Cpsf2, L(y/D)DVDAAF]  H-2 K^d (Mus musculus, UniProt P01902)       pIC50                    <    4.15
17     AYILAALTKLQ [Zfp236.2, E(y/D)LDLQTQG]  H-2 K^d (Mus musculus, UniProt P01902)       pIC50                    <    4.15
18           PYLTQYAI [Dhx8.2, P(y/D)LTQYAI]  H-2 K^d (Mus musculus, UniProt P01902)       pIC50                    <    4.15
19                       SEDKIKAIL [Rangap1]  H-2 K^d (Mus musculus, UniProt P01902)       pIC50                    =    5.29
20                     KPALKSEEKTL [Stau1.2]  H-2 K^d (Mus musculus, UniProt P01902)       pIC50                    <    4.15
21          AYRLEGDRS [Dcaf6, A(y/D)RLEGDRS]  H-2 K^d (Mus musculus, UniProt P01902)       pIC50                    <    4.15
